B1: PhoQ; a variant is named by its letters at X, in order, P23837 (parent)
chain: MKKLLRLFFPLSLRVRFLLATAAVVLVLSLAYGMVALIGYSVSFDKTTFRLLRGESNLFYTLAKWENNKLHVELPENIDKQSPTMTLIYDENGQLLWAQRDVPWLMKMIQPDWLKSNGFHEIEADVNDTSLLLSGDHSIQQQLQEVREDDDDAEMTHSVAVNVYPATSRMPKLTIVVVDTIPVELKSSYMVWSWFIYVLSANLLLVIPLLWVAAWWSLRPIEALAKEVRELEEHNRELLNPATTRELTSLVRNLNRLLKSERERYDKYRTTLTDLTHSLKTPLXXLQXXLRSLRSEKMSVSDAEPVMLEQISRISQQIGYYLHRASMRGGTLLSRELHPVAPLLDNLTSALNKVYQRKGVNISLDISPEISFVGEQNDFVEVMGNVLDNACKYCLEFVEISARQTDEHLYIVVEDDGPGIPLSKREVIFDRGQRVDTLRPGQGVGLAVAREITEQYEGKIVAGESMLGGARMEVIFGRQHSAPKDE

# Variants of: B1
# MEASUREMENT PROTOCOL: enrichment ratio after two sorts for PhoP signalling (ratio (wild type AVST 3.29)); higher = more functional
# CONDITION SUMMARY: with PhoP (E. coli)
Over roughly 140,000 sequences, “enrichment ratio after two sorts for PhoP signalling” has its median near 0; the highest 2% begin near 11. This excerpt belongs to a sample that is enriched for the highest values.
MEASURED ATTRIBUTE: enrichment ratio

• DFTI = ≤ 0.25
• TCKR = ≤ 0.25
• LYHC = ≤ 0.25
• HVFA = ≤ 0.25
• GRRN = ≤ 0.25
• VRNY = ≤ 0.25
• EIET = ≤ 0.25
• WCRI = ≤ 0.25
• FCQI = ≤ 0.25
• TNQT = 7.38
• GTLI = 15.8
• SLYM = ≤ 0.25
• TKIV = 11.9
• AKIM = 4.82
• ITLI = 8.76
• TLAV = 11.9
• FKHE = ≤ 0.25
• WDAC = ≤ 0.25
• SALI = 12.2
• TCVQ = ≤ 0.25
• GTKI = ≤ 0.25
• CIQI = ≤ 0.25
• SEEN = ≤ 0.25
• DFEW = ≤ 0.25
• PKSQ = ≤ 0.25
• GALA = 2.12
• TEKR = ≤ 0.25
• TKIS = 4.17
• GWNK = ≤ 0.25
• TECR = 16.3
• KLKV = ≤ 0.25
• YSWT = ≤ 0.25
• FSMS = 1.68
• ALVF = 0.451
• TSMS = 26.4
• KSMS = ≤ 0.25
• HDDH = ≤ 0.25
• KAQY = ≤ 0.25
• GALI = 14.1
• IILI = ≤ 0.25
• VIAY = ≤ 0.25
• LQRE = ≤ 0.25
• SEGM = 6.17
• LNLC = ≤ 0.25
• KSMG = ≤ 0.25
• WDSH = ≤ 0.25
• WHFP = ≤ 0.25
• ANLH = 13
• SEQN = 21.6
• FSQV = ≤ 0.25
• SEYM = 19.4
• ANCI = 19.9
• AHIQ = ≤ 0.25
• KSWN = ≤ 0.25
• AEPM = 0.861
• CDCR = ≤ 0.25
• NQKY = ≤ 0.25
• VMIT = ≤ 0.25
• ANHF = ≤ 0.25
• ATVF = 16.1
• GYLI = 0.357
• KLAV = ≤ 0.25
• TGAV = 17.1
• NALI = 4.49
• SLKT = ≤ 0.25
• AEIS = 10.8
• MGHH = ≤ 0.25
• TMFF = ≤ 0.25
• TKQV = 4.75
• MPMY = ≤ 0.25

Where do these numbers come from? They come from a collection of fitness landscapes (doi:10.1126/science.1257360).
